- measurement-protocol: gradient 5% acetonitrile 3 min, to 50% in 2 min, to 85% in 15 min, held 3 min, 100 µL/min
- condition-info: column: Zorbax Extend-C18 2.1 x 50 mm; eluents: water / acetonitrile, 0.1% formic acid
measured-attribute: RP-LC retention time (s)

Cc1ccc(F)c(Nc2ncccc2S(N)(=O)=O)c1    826
CCNC(=O)CCc1cc2ccccc2[nH]c1=O    623
CC(C)(C)NC(=O)N(Cc1ccsc1)CC(F)(F)F    925
N#CCSc1nnc2sc3ccccc3n12    671
COc1ccc(NC2=NC(C)(CO)CS2)cc1 (centres undefined)    638
CO[C@H]1C(=O)N(C2CCN(S(=O)(=O)c3c(C)noc3C)CC2)[C@H]1c1ccncc1    625
CS(=O)(=O)N(Cc1ccccn1)C1CN(C(=O)CCc2nc3ccccc3s2)C1    656
COc1cccc(CC(=O)N2CCC(C(=O)NCCc3csc(-c4cccs4)n3)CC2)c1    770
O=C(CCCc1ccccc1)N1CCN(c2ccc(Nc3cccnc3)nn2)CC1    575
Cc1ccc(NC(=O)N2CCC(n3cnc4cc(F)ccc4c3=O)CC2)cc1F    832
O=C(CCc1ccccc1)Nc1c(-c2ccccc2)nc2ccccn12    663
Cc1ccc(CNC(=O)C2CCCN(C(=O)c3[nH]c(C)c(C(=O)OC(C)C)c3C)C2)cc1 (centres undefined)    893
O=S(=O)(Cc1ccccc1)N1CCC(c2nc(C3CC3)no2)C1 (centres undefined)    875
CCCc1nnsc1C(=O)NCc1nc(C)no1    656

---

A collection of compounds and their measured RP-LC retention time
- measurement-protocol: gradient 5% acetonitrile 3 min, to 50% in 2 min, to 85% in 15 min, held 3 min, 100 µL/min
- condition-info: column: Zorbax Extend-C18 2.1 x 50 mm; eluents: water / acetonitrile, 0.1% formic acid
measured-attribute: RP-LC retention time (s)

CC(C)CC(=O)N1CCC(c2noc(-c3ccncc3)n2)C1 (stereo not drawn)    719
Fc1ccccc1C(c1nnc(-c2ccccc2)o1)N1CCN(c2ccccn2)CC1 (stereo not drawn)    704
O=C(Nc1ccc2c(c1)C(=O)N1CCCCC1CCO2)c1ccco1 (stereo not drawn)    692

---

- measurement-protocol: gradient 5% acetonitrile 3 min, to 50% in 2 min, to 85% in 15 min, held 3 min, 100 µL/min
- condition-info: column: Zorbax Extend-C18 2.1 x 50 mm; eluents: water / acetonitrile, 0.1% formic acid
measured-attribute: RP-LC retention time (s)

O=C(Nc1cccc(-c2noc(C3CC3)n2)c1)c1n[nH]c2c1CCCC2    941
Cc1oc(-c2[nH]ncc2C(=O)N2CCCCC2)cc1S(=O)(=O)Nc1cccc(F)c1    710
CCc1ccc(-c2noc(Cn3cnc4c(nnn4-c4ccccc4OC)c3=O)n2)cc1    1040
COc1ccccc1CCC(=O)Nc1ccc2c(c1)Sc1ncccc1C(=O)N2C(C)C    922
O=C(Cn1nc(C2CC2)cc1C(=O)N1CCCC1)NCc1ccc(F)cc1    738

---

- measurement-protocol: gradient 5% acetonitrile 3 min, to 50% in 2 min, to 85% in 15 min, held 3 min, 100 µL/min
- condition-info: column: Zorbax Extend-C18 2.1 x 50 mm; eluents: water / acetonitrile, 0.1% formic acid
Cut-off 800 s on RP-LC retention time: below means condition met, at or above means condition not met.

CC(C)C(=O)n1nc(-c2ccccc2)nc1N    condition not met
Cc1ccccc1N1CCN(C(=O)c2cc(C)n3nccc3n2)CC1    condition not met
COc1cc(Cc2nc(-c3cccc(-c4ccnn4C)c3)no2)cc(OC)c1    condition not met
CCCCOC(=O)C1=CN(C)S(=O)(=O)N=C1C    condition not met
CCc1nc2ccccc2c(=O)n1Cc1noc(C2CC(=O)N(c3ccc(C)c(C)c3)C2)n1 (stereo not given)    condition not met
O=C(NCC1CC1)C1CCN(c2nc3ccsc3c(=O)n2Cc2ccc(F)cc2)CC1    condition not met
Cc1nn(C(C)C(=O)NCCN2CCCCCC2)c(=O)c2c(-n3cccc3)n(-c3ccccc3)nc12 (stereo not given)    condition met
O=C(Cc1csc(NC(=O)c2cnccn2)n1)Nc1nc2ccccc2s1    condition met
Cc1ccc(NC(=O)N2CCN(c3cc(C)nc(N4CCOCC4)n3)CC2)c(Cl)c1    condition met
O=C(NCC1CC(=O)N(c2ccc3c(c2)OCO3)C1)c1ccccc1F (stereo not given)    condition met
CC(C(=O)NCc1ccco1)C1CCN(C(=O)c2cc3cc(Cl)ccc3[nH]2)CC1 (stereo not given)    condition not met
O=C(c1cn(-c2cc(N3CCCCC3)ncn2)cn1)N1CCCC1    condition met
Cc1noc(C2CN(C(=O)Nc3ccc(Cl)cc3F)CC23CCOCC3)n1 (stereo not given)    condition met
COC(=O)C(NC(=O)N1CC(Cn2c(C)cnc2C2CCOCC2)C1)C(C)C (stereo not given)    condition met

---

Attribute: RP-LC retention time
- measurement-protocol: gradient 5% acetonitrile 3 min, to 50% in 2 min, to 85% in 15 min, held 3 min, 100 µL/min
- condition-info: column: Zorbax Extend-C18 2.1 x 50 mm; eluents: water / acetonitrile, 0.1% formic acid
measured-attribute: RP-LC retention time (s)

O=C(NCC1(CO)CC1)c1ccccc1F    599
Cc1ccc(NC(=O)c2cn(-c3cc(N(C)C)ncn3)cn2)cc1F    884
Cn1nccc1C(=O)N1CCC(c2noc(-c3ccccc3)n2)C1 (stereo unspecified)    755
CC(C)(C)C(=O)N1CCC(OC2CCN(Cc3ccccc3)CC2)CC1    638
COc1ccc(F)cc1S(=O)(=O)N1CCC(OCc2noc(C3CCCO3)n2)CC1 (stereo unspecified)    870
O=C(NC1CC1)c1ccc(N2CCC(NCc3cc(F)ccc3O)C2)nc1 (stereo unspecified)    544
O=C(NCCCN1CCCC1=O)c1ccc2ccnc(N3CCN(c4ccc(F)cc4)CC3)c2c1    647
Cc1cc(C)c(NC(=O)CN2C(=O)NC3(CCCCC3)C2=O)c(C)c1    777
Cc1ccc(C2Cn3cnc(C(=O)N4CCC(C(=O)NC(C)c5ccccc5)CC4)c3CO2)cc1 (stereo unspecified)    756
Fc1ccccc1-c1ccc(CNCc2ccco2)o1    659
Cc1cc(C)cc(NC(=O)NCC2CCOCC2)c1    752

---

- measurement-protocol: gradient 5% acetonitrile 3 min, to 50% in 2 min, to 85% in 15 min, held 3 min, 100 µL/min
- condition-info: column: Zorbax Extend-C18 2.1 x 50 mm; eluents: water / acetonitrile, 0.1% formic acid
measured-attribute: RP-LC retention time (s)

COc1ccc(-c2nc(NC3CCCC3)c3ccccc3n2)cc1    825
O=C(CCSc1ccccc1)N1CCN(CC(F)(F)F)CC1    870
CCn1cc(CC(=O)NCc2ccc3c(c2)OCO3)c2cccnc21    690
COc1ccc(C)cc1NC(=O)NCC(c1cccnc1)c1cn(C)c2ccccc12 (centres undefined)    734
CC1CCN(C(=O)c2cn(-c3ccc(-c4nc(C5CC5)no4)cn3)cn2)CC1    912
Cc1cccc(S(=O)(=O)N2CCCC(Cn3c(C4CC4)nc4cccnc43)C2)c1 (centres undefined)    791
CCc1ccccc1NC(=O)CSc1cc(N2CCN(c3ccc(OC)cc3)CC2)ncn1    1010
COC(=O)c1ccc(NC(=O)Cn2cccc(-c3nc(-c4ccc(OC)c(OC)c4)no3)c2=O)cc1    1010
COc1cccc(C(=O)N2CCC3(CC2)NCc2ccccc2-n2ccnc23)c1    606

---

Reported RP-LC retention time values for a set of compounds
- measurement-protocol: gradient 5% acetonitrile 3 min, to 50% in 2 min, to 85% in 15 min, held 3 min, 100 µL/min
- condition-info: column: Zorbax Extend-C18 2.1 x 50 mm; eluents: water / acetonitrile, 0.1% formic acid
measured-attribute: RP-LC retention time (s)

CC(C)NC(=O)C1CCN(C(=O)c2ncn3c2COC(c2ccc(F)cc2)C3)CC1 (stereo not given)    679
CCOC(=O)c1c(C)[nH]c(C(=O)N2CCC(CC(=O)N3CCN(C4CCCCC4)CC3)CC2)c1C    624
COc1ccc(OC)c(-c2ccc(=O)n(CC(=O)Nc3ccc(-n4cnnn4)cc3)n2)c1    689
Oc1cccc(-c2nc3cnccn3c2Nc2ccccc2)c1    710
CCN1C(=O)C(CC(=O)NC2CCCCCC2)Sc2ncccc21 (stereo not given)    804
O=C(NCCC1CCN(S(=O)(=O)c2ccc(F)cc2)CC1)NCc1ccc(F)cc1    852
CCOc1cc(C(=O)Nc2nc(-c3ccc4c(c3)N(C)C(=O)CO4)cs2)cc(OCC)c1OCC    1140
COc1ccc(N2CC(NC(=O)NCCC3=CCCCC3)CC2=O)cc1 (stereo not given)    731
COc1cccc(Cn2cc(S(=O)(=O)N3CCCCC3)ccc2=O)c1    882
COc1cc([N+](=O)[O-])ccc1NC(=O)c1ccccc1S(C)(=O)=O    749
Cc1ccc(S(=O)(=O)Cc2nc(-c3ccc4c(c3)OCO4)no2)cc1    951
Cn1c(=O)oc2cc(-c3noc(-c4cccc5[nH]ccc45)n3)ccc21    932
CC(=O)N1c2ccc(S(=O)(=O)N(C)CC(=O)N3CCN(c4ccccn4)CC3)cc2CC1C (stereo not given)    590
COCCN(C)Cc1ccc(CC2CCN(C(=O)C3(c4ccc(OC)cc4)CC3)CC2)cc1    691
CC(C(=O)N1CCCN(c2nc3cccnc3o2)CC1)c1ccccc1 (stereo not given)    718
CC1CCN(C(=O)C2CCN(c3cc(N4CCCCC4)ncn3)CC2)CC1    676
Cc1ccc(CNC(=O)N(C)CCc2noc(COc3cccc(C)c3)n2)cc1    956
O=C(Cc1ccc(F)cc1)NC(c1ccccc1)c1nnc(N2CCOCC2)o1 (stereo not given)    743
CCC(=O)c1ccc2c(c1)N(CCCN(C)C)c1ccccc1S2    772
CN1C(=O)c2cccnc2Sc2cc(NC(=O)Cc3ccccc3Cl)ccc21    812
COc1ccc(Cl)cc1NC(=O)CSc1ccc(NC(=O)c2ccco2)nn1    851
CCn1c(C2CCN(S(=O)(=O)c3ccc4c(c3)CCCC4)C2)nc2ccncc21 (stereo not given)    585
CN(C)CC1(O)CCC2(CCN(C(=O)c3ccsc3)CC2)CC1    576
Cc1cc(C)nc(Sc2ccc(S(C)(=O)=O)cc2[N+](=O)[O-])n1    750
CC(C)NC(=O)CN1C(=O)CCSc2ccccc21    708
O=C(O)CC1CCCN(c2cn[nH]c(=O)c2)C1 (stereo not given)    570
CC(=O)c1cccc(C(=O)N2CCC3(CC2)NC(=O)N(Cc2cccc(Cl)c2)C3=O)c1    771
Nc1nc(N2CCN(c3ccccn3)CC2)ncc1C(=O)NCc1ccccc1    592
CCc1ccccc1NC(=O)Nc1cccc(-c2ccc(N3CCOCC3)nn2)c1    717
CCn1cc(-c2ccc(F)cc2)cc1C(=O)O    861
